test system: P. aeruginosa PAO1; conditions: MH broth pH 7.4, 16–20 h, 37 °C
Please provide measured MIC P. aeruginosa PAO1 for the entries that follow.
Number in µg/mL, nothing else.

Determine its reported MIC P. aeruginosa PAO1: CC(C)C[C@H](NC(=O)[C@H](CC(C)C)NC(=O)[C@H](CC(C)C)NC(=O)[C@H](CCCCN)NC(=O)[C@@H](CC(C)C)NC(=O)[C@@H](CC(C)C)NC(=O)[C@H](CCCCN)NC(=O)[C@@H](CC(C)C)NC(=O)[C@@H](CC(C)C)NC(=O)[C@H](CCCCN)NC(=O)[C@@H](N)CCCCN)C(N)=O [HP14, KKllKllKLLL]
8

Determine its reported MIC P. aeruginosa PAO1: CC(C)C[C@H](NC(=O)[C@@H](CC(C)C)NC(=O)[C@H](CCCCN)NC(=O)[C@@H](CC(C)C)NC(=O)[C@H](CC(C)C)NC(=O)[C@@H](CCCCN)NC(=O)[C@H](CC(C)C)NC(=O)[C@@H](CC(C)C)NC(=O)[C@H](CCCCN)NC(=O)[C@H](N)CCCCN)C(=O)N[C@H](CC(C)C)C(N)=O [HP31, kKlLkLlKlLl]
8

From: paper PMC10258794
